Measured β-turn of individual entries
Experiment: CD spectroscopy, secondary structure content (DichroWeb)
Format: physicochemical
Conditions: CD in SDS micelles (20 mM), peptide 50 μM, 25 °C, DichroWeb
Bridge positions count the residues as written; N and C are the ends. Square brackets hold non-standard residues; d marks the D form. Peptide text beside a SMILES is read from it.
Write down the numeric answer in % and omit the unit.

These recorded examples may help you get a feel for the data.
[
  {
    "molecule": "CC[C@H](C)[C@H](NC(=O)[C@H](CCCNC(=N)N)NC(=O)[C@@H]1CCCCn2cc(nn2)C[C@H](NC(=O)[C@H](Cc2ccccc2)NC(=O)[C@H](Cc2c[nH]c3ccccc23)NC(=O)[C@@H]2CCCN2C(=O)[C@@H](NC(=O)[C@@H](N)Cc2ccccc2)C(C)C)C(=O)N[C@@H](CCCCN)C(=O)N[C@@H](Cc2ccccc2)C(=O)NC(CC(C)C)C(=O)N1)C(=O)N[C@@H](CC(C)C)C(N)=O (stereo in doubt)",
    "β-turn, %": 15
  },
  {
    "molecule": "CC[C@H](C)[C@H](NC(=O)[C@H](CCCNC(=N)N)NC(=O)[C@@H]1CCC(=O)NCCCC[C@H](NC(=O)[C@H](Cc2ccccc2)NC(=O)[C@H](Cc2c[nH]c3ccccc23)NC(=O)[C@@H]2CCCN2C(=O)[C@@H](NC(=O)[C@@H](N)Cc2ccccc2)C(C)C)C(=O)N[C@@H](CCCCN)C(=O)N[C@@H](Cc2ccccc2)C(=O)N[C@H](CC(C)C)C(=O)N1)C(=O)N[C@@H](CC(C)C)C(N)=O [compound 12] (H-FVPWFKKF[dL]ERIL-NH2; lactam 6-10)",
    "β-turn, %": 10
  },
  {
    "molecule": "CC[C@H](C)[C@H](NC(=O)[C@H](CCCNC(=N)N)NC(=O)[C@]1(C)CCCC=CCCC[C@](C)(NC(=O)[C@H](Cc2ccccc2)NC(=O)[C@H](Cc2c[nH]c3ccccc23)NC(=O)[C@@H]2CCCN2C(=O)[C@@H](NC(=O)[C@@H](N)Cc2ccccc2)C(C)C)C(=O)N[C@@H](CCCCN)C(=O)N[C@@H](Cc2ccccc2)C(=O)N[C@H](CC(C)C)C(=O)N1)C(=O)N[C@@H](CC(C)C)C(N)=O",
    "β-turn, %": 5
  }
]

Then this molecule:
// sample CC[C@H](C)[C@H](NC(=O)[C@H](CCCNC(=N)N)NC(=O)[C@@H]1CCCCNC(=O)CC[C@H](NC(=O)[C@H](Cc2ccccc2)NC(=O)[C@H](Cc2c[nH]c3ccccc23)NC(=O)[C@@H]2CCCN2C(=O)[C@@H](NC(=O)[C@@H](N)Cc2ccccc2)C(C)C)C(=O)N[C@@H](CCCCN)C(=O)N[C@@H](Cc2ccccc2)C(=O)N[C@H](CC(C)C)C(=O)N1)C(=O)N[C@@H](CC(C)C)C(N)=O [compound 24] (H-FVPWFEKF[dL]KRIL-NH2; lactam 6-10) , its β-turn was 7

* * *

Experiment: CD spectroscopy, secondary structure content (DichroWeb)
Assay type: physicochemical
Settings: CD in water, peptide 50 μM, 25 °C, DichroWeb
Bridge positions count the residues as written; N and C are the ends. Square brackets hold non-standard residues; d marks the D form. Peptide text beside a SMILES is read from it.
compounds and their reported β-strand-2 (distorted β-strand)
Entry rule: numbers only, all in %.

Worked examples follow.
[
  {
    "compound": "CC[C@H](C)[C@H](NC(=O)[C@H](CCCNC(=N)N)NC(=O)[C@@H]1CCCCn2cc(nn2)C[C@H](NC(=O)[C@H](Cc2ccccc2)NC(=O)[C@H](Cc2c[nH]c3ccccc23)NC(=O)[C@@H]2CCCN2C(=O)[C@@H](NC(=O)[C@@H](N)Cc2ccccc2)C(C)C)C(=O)N[C@@H](CCCCN)C(=O)N[C@@H](Cc2ccccc2)C(=O)NC(CC(C)C)C(=O)N1)C(=O)N[C@@H](CC(C)C)C(N)=O (stereo in doubt) [compound 17]",
    "β-strand-2 (distorted β-strand) (%)": 9
  },
  {
    "compound": "CC[C@H](C)[C@H](NC(=O)[C@H](CCCNC(=N)N)NC(=O)[C@]1(C)CCCC=CCCC[C@](C)(NC(=O)[C@H](Cc2ccccc2)NC(=O)[C@H](Cc2c[nH]c3ccccc23)NC(=O)[C@@H]2CCCN2C(=O)[C@@H](NC(=O)[C@@H](N)Cc2ccccc2)C(C)C)C(=O)N[C@@H](CCCCN)C(=O)N[C@@H](Cc2ccccc2)C(=O)N[C@H](CC(C)C)C(=O)N1)C(=O)N[C@@H](CC(C)C)C(N)=O [compound 25]",
    "β-strand-2 (distorted β-strand) (%)": 8
  },
  {
    "compound": "CC[C@H](C)[C@H](NC(=O)[C@H](CCCNC(=N)N)NC(=O)[C@@H]1CCC(=O)NCCCC[C@H](NC(=O)[C@H](Cc2ccccc2)NC(=O)[C@H](Cc2c[nH]c3ccccc23)NC(=O)[C@@H]2CCCN2C(=O)[C@@H](NC(=O)[C@@H](N)Cc2ccccc2)C(C)C)C(=O)N[C@@H](CCCCN)C(=O)N[C@@H](Cc2ccccc2)C(=O)N[C@H](CC(C)C)C(=O)N1)C(=O)N[C@@H](CC(C)C)C(N)=O [compound 12] (H-FVPWFKKF[dL]ERIL-NH2; lactam 6-10)",
    "β-strand-2 (distorted β-strand) (%)": 8
  }
]

Lab note: CC[C@H](C)[C@H](NC(=O)[C@H](CCCNC(=N)N)NC(=O)[C@@H]1CCCCNC(=O)CC[C@H](NC(=O)[C@H](Cc2ccccc2)NC(=O)[C@H](Cc2c[nH]c3ccccc23)NC(=O)[C@@H]2CCCN2C(=O)[C@@H](NC(=O)[C@@H](N)Cc2ccccc2)C(C)C)C(=O)N[C@@H](CCCCN)C(=O)N[C@@H](Cc2ccccc2)C(=O)N[C@H](CC(C)C)C(=O)N1)C(=O)N[C@@H](CC(C)C)C(N)=O [compound 24] (H-FVPWFEKF[dL]KRIL-NH2; lactam 6-10) gave β-strand-2 (distorted β-strand) of 9

* * *

Each entry below carries its recorded helix-2 (distorted α-helix).
Assay: CD spectroscopy, secondary structure content (DichroWeb)
Type: physicochemical
Settings: CD in SDS micelles (20 mM), peptide 50 μM, 25 °C, DichroWeb
Bridge positions count the residues as written; N and C are the ends. Square brackets hold non-standard residues; d marks the D form. Peptide text beside a SMILES is read from it.
Param answer (str): number followed by unit.

[
  {
    "compound": "CC[C@H](C)[C@H](NC(=O)[C@H](CCCNC(=N)N)NC(=O)[C@@H]1CCC(=O)NCCCC[C@H](NC(=O)[C@H](Cc2ccccc2)NC(=O)[C@H](Cc2c[nH]c3ccccc23)NC(=O)[C@@H]2CCCN2C(=O)[C@@H](NC(=O)[C@@H](N)Cc2ccccc2)C(C)C)C(=O)N[C@@H](CCCCN)C(=O)N[C@@H](Cc2ccccc2)C(=O)N[C@H](CC(C)C)C(=O)N1)C(=O)N[C@@H](CC(C)C)C(N)=O [compound 12] (H-FVPWFKKF[dL]ERIL-NH2; lactam 6-10)",
    "helix-2 (distorted α-helix)": "24%"
  },
  {
    "compound": "CC[C@H](C)[C@H](NC(=O)[C@H](CCCNC(=N)N)NC(=O)[C@]1(C)CCCC=CCCC[C@](C)(NC(=O)[C@H](Cc2ccccc2)NC(=O)[C@H](Cc2c[nH]c3ccccc23)NC(=O)[C@@H]2CCCN2C(=O)[C@@H](NC(=O)[C@@H](N)Cc2ccccc2)C(C)C)C(=O)N[C@@H](CCCCN)C(=O)N[C@@H](Cc2ccccc2)C(=O)N[C@H](CC(C)C)C(=O)N1)C(=O)N[C@@H](CC(C)C)C(N)=O",
    "helix-2 (distorted α-helix)": "22%"
  },
  {
    "compound": "CC[C@H](C)[C@H](NC(=O)[C@H](CCCNC(=N)N)NC(=O)[C@@H]1CCCCn2cc(nn2)C[C@H](NC(=O)[C@H](Cc2ccccc2)NC(=O)[C@H](Cc2c[nH]c3ccccc23)NC(=O)[C@@H]2CCCN2C(=O)[C@@H](NC(=O)[C@@H](N)Cc2ccccc2)C(C)C)C(=O)N[C@@H](CCCCN)C(=O)N[C@@H](Cc2ccccc2)C(=O)NC(CC(C)C)C(=O)N1)C(=O)N[C@@H](CC(C)C)C(N)=O (stereo in doubt)",
    "helix-2 (distorted α-helix)": "16%"
  }
]

Could you now look at the following compound, please?
// field: helix-2 (distorted α-helix); key: CC[C@H](C)[C@H](NC(=O)[C@H](CCCNC(=N)N)NC(=O)[C@@H]1CCCCNC(=O)CC[C@H](NC(=O)[C@H](Cc2ccccc2)NC(=O)[C@H](Cc2c[nH]c3ccccc23)NC(=O)[C@@H]2CCCN2C(=O)[C@@H](NC(=O)[C@@H](N)Cc2ccccc2)C(C)C)C(=O)N[C@@H](CCCCN)C(=O)N[C@@H](Cc2ccccc2)C(=O)N[C@H](CC(C)C)C(=O)N1)C(=O)N[C@@H](CC(C)C)C(N)=O [compound 24] (H-FVPWFEKF[dL]KRIL-NH2; lactam 6-10) ; value = 18%

Data origin: paper PMC8389922
